Molecular target: T1, HIV-1YU2 gp120 (HIV-1 strain YU-2, UniProt P35961 32-498, limits assumed)
T1 construct: domain: gp120
Assay: SPR direct binding; YU-2 gp120 immobilized (~3500 RU), peptide as analyte; Example 9; SPR direct binding, peptide over immobilized gp120
Where no end group is shown, it is not given here. [ ]: non-standard residue; d: D form.
measured property: Kd

{"binder": "INI[Azp‑triazole‑ferrocene]WS-NH2 (Rink amide resin; also called INIPWS) [UM35]", "measured property": "Kd", "test value": "> 10 µM"}
